Where do the numbers come from? From patent US11903914B2.

# Test system: LOVO (ATCC CCL-229) lung cancer cells
# EXPERIMENT_NOTES: CELLTITER-GLO luminescent cell viability assay, LOVO cells (same method)
# Assay type: cell-based
# PROTOCOL_CONDITIONS: Homo sapiens
ASSAY_ENDPOINT: IC50 (µM)
Supply the numeric figure in µM, leaving out any unit text.

Input CC1=C(CC(=O)O)c2cc(F)ccc2/C1=C\c1ccc([S+](C)[O-])cc1 (stereo not shown) [sulindac] . Output IC50: 100
